Molecular target: human iNOS (Homo sapiens)
Assay: NO hemoglobin capture assay, human iNOS
Settings: read-out: Ki human iNOS
MEASURED ENDPOINT: Ki (nM)
Dear colleague, please return just the value in nM, with no unit written.

# return recorded Ki for input Cc1cc(N)nc(CCc2cc(CCCN(C)C)cc(F)c2F)c1 [Compound 10]
1310

###

Biological target: rat nNOS (Rattus norvegicus, UniProt P29476)
Sequence (P29476 whole entry): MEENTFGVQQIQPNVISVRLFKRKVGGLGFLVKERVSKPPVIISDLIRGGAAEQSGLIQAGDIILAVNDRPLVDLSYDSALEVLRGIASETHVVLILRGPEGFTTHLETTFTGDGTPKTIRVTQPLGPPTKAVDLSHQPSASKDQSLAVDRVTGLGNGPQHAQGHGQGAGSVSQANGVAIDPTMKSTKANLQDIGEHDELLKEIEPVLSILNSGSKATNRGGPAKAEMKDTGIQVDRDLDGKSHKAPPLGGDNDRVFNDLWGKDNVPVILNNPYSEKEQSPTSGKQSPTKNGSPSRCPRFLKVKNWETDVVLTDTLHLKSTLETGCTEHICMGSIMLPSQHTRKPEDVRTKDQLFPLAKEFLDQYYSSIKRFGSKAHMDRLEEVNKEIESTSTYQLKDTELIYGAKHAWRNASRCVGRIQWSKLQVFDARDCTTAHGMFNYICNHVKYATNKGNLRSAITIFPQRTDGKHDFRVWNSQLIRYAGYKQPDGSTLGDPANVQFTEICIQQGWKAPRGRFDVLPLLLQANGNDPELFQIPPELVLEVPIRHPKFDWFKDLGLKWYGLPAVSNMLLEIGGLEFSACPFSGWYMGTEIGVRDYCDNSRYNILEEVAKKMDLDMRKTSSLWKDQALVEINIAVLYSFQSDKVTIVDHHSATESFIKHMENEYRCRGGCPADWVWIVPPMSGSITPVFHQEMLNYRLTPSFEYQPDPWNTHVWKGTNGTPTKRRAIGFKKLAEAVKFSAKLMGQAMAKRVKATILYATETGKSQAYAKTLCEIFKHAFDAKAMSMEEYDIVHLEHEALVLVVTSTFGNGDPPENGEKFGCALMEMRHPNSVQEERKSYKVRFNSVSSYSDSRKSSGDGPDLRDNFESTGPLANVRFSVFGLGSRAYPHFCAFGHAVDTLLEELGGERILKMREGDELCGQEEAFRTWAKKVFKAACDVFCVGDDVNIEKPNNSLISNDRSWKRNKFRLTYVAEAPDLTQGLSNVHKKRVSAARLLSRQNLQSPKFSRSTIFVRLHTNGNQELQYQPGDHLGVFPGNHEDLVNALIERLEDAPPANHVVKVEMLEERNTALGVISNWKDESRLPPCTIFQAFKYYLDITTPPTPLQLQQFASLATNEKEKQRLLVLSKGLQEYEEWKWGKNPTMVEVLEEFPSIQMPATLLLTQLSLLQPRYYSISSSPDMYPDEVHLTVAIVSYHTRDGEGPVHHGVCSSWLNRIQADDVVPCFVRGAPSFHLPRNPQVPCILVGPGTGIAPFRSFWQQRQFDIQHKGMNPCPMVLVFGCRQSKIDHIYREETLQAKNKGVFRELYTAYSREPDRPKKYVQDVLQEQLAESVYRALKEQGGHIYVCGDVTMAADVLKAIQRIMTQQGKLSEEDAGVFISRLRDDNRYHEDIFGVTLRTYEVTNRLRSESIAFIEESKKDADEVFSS
Assay: NO hemoglobin capture assay, rat nNOS
Format: biochemical
Settings: Table 4; read-out: Ki Rat nNOS
MEASURED ENDPOINT: Ki (nM)
Dear colleague, please return just the value in nM, with no unit written.

# count of solved cases: 5
Cc1cc(N)nc(CCc2c(F)c(F)cc(CC[C@H]3CCCN3C)c2F)c1 [Compound 52]; 93
CNC/C=C\c1cc(F)cc(CCc2cc(C)cc(N)n2)c1 [Compound 47]; 31
CNCc1ccc2ncc(CCc3cc(C)cc(N)n3)cc2c1 [Compound 49]; 38
CNC/C=C/c1cc(F)cc(CCc2cc(C)cc(N)n2)c1 [Compound 48]; 21
Cc1cc(N)nc(CCc2c(F)c(F)cc(CC[C@@H]3CCCN3C)c2F)c1 [Compound 51]; 67

For the next question, use this compound.
# return recorded Ki for input CNCC#Cc1cc(F)c(F)c(CCc2cc(C)cc(N)n2)c1F [Compound 50]
119

###

Target: rat nNOS (Rattus norvegicus, UniProt P29476)
Test: NO hemoglobin capture assay, rat nNOS
Format: biochemical
Details: Table 4; nNOS versus iNOS
MEASURED ENDPOINT: Selectivity n/i

CNCC#Cc1cc(F)c(F)c(CCc2cc(C)cc(N)n2)c1F; 48

For the next question, use this compound.
# return recorded Selectivity n/i for input Cc1cc(N)nc(CCc2c(F)c(F)cc(CC[C@@H]3CCCN3C)c2F)c1
88

###

Biological target: murine macrophage iNOS (Mus musculus)
Experiment: NO hemoglobin capture assay, murine iNOS
Type: biochemical
Settings: Table 1; Ki from IC50 by Cheng-Prusoff; 10 μM L-Arg, pH 7.4, 37° C.
Each entry below lists one item and its recorded Ki value.
Note to self: number, then unit, no commentary.

Cc1cc(N)nc(CCc2c(F)c(F)cc(CCCN(C)C)c2F)c1; 3.26 µM
Cc1cc(N)nc(CCc2cc(F)cc(CC[C@@H]3C[C@H](F)CN3)c2)c1; 4.54 µM
Cc1cc(N)nc(CCc2cc(F)cc(C#CCN(C)C)c2)c1; 4.89 µM
Cc1cc(N)nc(CCc2cc(CC[C@H]3COCCN3C)cc(F)c2F)c1; 3.45 µM

For the next question, use this compound.
# return recorded Ki for input Cc1cc(N)nc(CCc2cc(C#CCN(C)C)cc(F)c2F)c1
4.41 µM

###

Biological target: human nNOS (Homo sapiens, UniProt P29475)
Sequence (P29475 whole entry): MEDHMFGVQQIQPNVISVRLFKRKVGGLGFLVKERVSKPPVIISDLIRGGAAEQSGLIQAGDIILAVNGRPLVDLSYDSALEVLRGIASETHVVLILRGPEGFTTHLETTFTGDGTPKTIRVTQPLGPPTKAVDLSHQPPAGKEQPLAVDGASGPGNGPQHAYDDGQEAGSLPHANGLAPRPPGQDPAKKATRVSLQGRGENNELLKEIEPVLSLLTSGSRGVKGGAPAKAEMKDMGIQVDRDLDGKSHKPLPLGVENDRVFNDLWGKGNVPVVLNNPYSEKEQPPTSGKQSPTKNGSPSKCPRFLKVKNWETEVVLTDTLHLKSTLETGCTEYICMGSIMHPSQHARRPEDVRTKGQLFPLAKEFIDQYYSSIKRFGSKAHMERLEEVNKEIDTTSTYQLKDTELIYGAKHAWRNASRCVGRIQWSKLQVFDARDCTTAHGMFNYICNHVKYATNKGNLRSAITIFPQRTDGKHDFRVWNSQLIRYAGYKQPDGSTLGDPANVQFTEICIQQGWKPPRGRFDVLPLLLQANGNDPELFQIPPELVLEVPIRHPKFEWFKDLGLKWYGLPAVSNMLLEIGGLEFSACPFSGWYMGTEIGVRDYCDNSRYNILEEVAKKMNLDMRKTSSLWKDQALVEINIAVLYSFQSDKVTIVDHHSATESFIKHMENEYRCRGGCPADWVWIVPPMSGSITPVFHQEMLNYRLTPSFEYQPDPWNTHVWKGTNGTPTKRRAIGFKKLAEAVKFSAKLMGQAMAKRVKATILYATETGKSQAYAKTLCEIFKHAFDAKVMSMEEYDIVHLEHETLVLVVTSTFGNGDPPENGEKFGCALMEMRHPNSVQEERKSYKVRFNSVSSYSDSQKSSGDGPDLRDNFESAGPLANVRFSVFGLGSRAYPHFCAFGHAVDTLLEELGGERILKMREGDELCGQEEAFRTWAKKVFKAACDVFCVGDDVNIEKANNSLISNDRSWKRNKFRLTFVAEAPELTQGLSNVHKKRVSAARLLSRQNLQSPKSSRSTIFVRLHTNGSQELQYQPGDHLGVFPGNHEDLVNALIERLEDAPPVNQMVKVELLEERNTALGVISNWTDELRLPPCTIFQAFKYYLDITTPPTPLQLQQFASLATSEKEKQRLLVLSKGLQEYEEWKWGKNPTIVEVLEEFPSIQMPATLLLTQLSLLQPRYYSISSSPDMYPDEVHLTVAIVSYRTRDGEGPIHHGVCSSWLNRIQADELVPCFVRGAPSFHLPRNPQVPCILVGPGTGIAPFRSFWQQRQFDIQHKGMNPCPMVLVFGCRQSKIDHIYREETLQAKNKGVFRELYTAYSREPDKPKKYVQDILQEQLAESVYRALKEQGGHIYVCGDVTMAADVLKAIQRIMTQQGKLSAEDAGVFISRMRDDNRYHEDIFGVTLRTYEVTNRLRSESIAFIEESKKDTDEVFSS
Assay: NO hemoglobin capture assay, human nNOS
Type: biochemical
Settings: Table 4
Each entry below lists one item and its recorded Selectivity nNOS human/rat value.
Would you mind answering with just the numeric figure?

Cc1cc(N)nc(CCc2c(F)c(F)cc(CC[C@H]3CCCN3C)c2F)c1; 1.62
CNCc1ccc2ncc(CCc3cc(C)cc(N)n3)cc2c1; 0.9

For the next question, use this compound.
# return recorded Selectivity nNOS human/rat for input CNC/C=C/c1cc(F)cc(CCc2cc(C)cc(N)n2)c1
1.3
